Reference for the values: the supplement of paper PMC10567573

B1: FLOT1 (parent)
chain: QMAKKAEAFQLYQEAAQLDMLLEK

# Variants of: B1
# EXPERIMENTAL PROTOCOL: protein stability index of a GFP-peptide fusion (GPS, HEK-293T) (PSI 1-6); higher = more stable;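 also: lentivirally expressed fusions sorted by FACS into six bins by GFP to DsRed ratio, PSI derived from sequencing read proportions per bin multiplied by bin number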
# ASSAY SETUP: c terminus: a fixed tail appended
PROPERTY NAME: protein stability index
Give the figure by itself; no unit, no explanation.

Record excerpt, results attached:
{"MUTANT DESIGNATION": "D19L", "protein stability index": 1.24}
{"MUTANT DESIGNATION": "E23T", "protein stability index": 1.51}

Please give the measured protein stability index for this variant: "A8E"
2.49

Please give the measured protein stability index for this variant: "L21E"
2.7

Please give the measured protein stability index for this variant: "L22P"
3.9

Please give the measured protein stability index for this variant: "K4V"
1.47

Please give the measured protein stability index for this variant: "Q1A"
2.01
